Assay: Intrinsic aqueous solubility of the compound
Type: physicochemical
Details: read-out: Intrinsic_solubility
property label: solubility

Measured solubility, C[C@H](N)CNc1nc(-c2ccncc2)cc2cnccc12 : > 400 µg/mL

----------
Test: Volume of distribution at steady state in Lewis rat at 5 mg/kg, iv
Format: ADME, organism-based
Design: dose 5 mg/kg, route intravenous
Conditions: in vivo, read-out: Vdss
property label: Vd (L/kg)
Only the number, expressed in L/kg, is required.

Measured Vd, C[C@H](N)CNc1nc(-c2ccncc2)cc2cnccc12 : 14

----------
Assay: Octanol-water distribution coefficient, log D of the compound at pH 6.8
Assay type: physicochemical
property label: logD
Reply with the value as a number alone.

Measured logD, C[C@H](N)CNc1nc(-c2ccncc2)cc2cnccc12 : -0.3
